tested on: Escherichia coli TOP10; assay: shrunken log2 fold change of peptide-encoding DNA abundance (4.5 h post-induction vs induction); higher = less antimicrobial activity (less host growth inhibition); conditions: time post-induction: 4.5 h; library: site-saturation at positions 5, 18, 19, 20;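 further: peptides expressed intracellularly from a pBAD plasmid library in pooled LB shake-flask culture, induced with 0.3% L-arabinose, DNA abundance read by NGS, three biological replicates, DESeq2 with apeglm shrinkage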
Label class 1 when shrunken log2 fold change is at or above -0.2; anything below gets class 0.

In [3]: df
Out[3]:
              sequence_text  label_class
 0  RRIRSRPPRLPRPRPRPSTNPRP      class 0
 1  RRIRVRPPRLPRPRPRPRATPRP      class 1
 2  RRIRLRPPRLPRPRPRPKPTPRP      class 1
 3  RRIRDRPPRLPRPRPRPLEQPRP      class 1
 4  RRIRHRPPRLPRPRPRPMQLPRP      class 0
 5  RRIRNRPPRLPRPRPRPLFLPRP      class 0
 6  RRIRYRPPRLPRPRPRPLSTPRP      class 0
 7  RRIRRRPPRLPRPRPRPHYVPRP      class 1
 8  RRIRIRPPRLPRPRPRPPFTPRP      class 1
 9  RRIRNRPPRLPRPRPRPNLYPRP      class 0
10  RRIRNRPPRLPRPRPRPPYCPRP      class 1
11  RRIRGRPPRLPRPRPRPESNPRP      class 1
12  RRIRFRPPRLPRPRPRPNMAPRP      class 0
13  RRIRYRPPRLPRPRPRPMCVPRP      class 0
14  RRIRPRPPRLPRPRPRPDMMPRP      class 1
